Procedure Details: Inhibition of MEK in human HMEC cells assessed as inhibition of ERK phosphorylation incubated for 60 mins by Western blotting analysis
Assay type: cell-based
Test Context: 1 h
Metric: EC50

# Smiles, Result
data = [
    ("O=C(NOCC1CC1)c1ccc(F)c(F)c1Nc1ccc(I)cc1Cl", "11 nM"),
]

====

Procedure Details: Inhibition of MEK in human HCT-116 cells expressing K-Ras2 G13D mutant assessed as inhibition of ERK phosphorylation incubated for 60 mins by Western blotting analysis
Format: cell-based
Test Context: HCT-116, 1 h

# Smiles, EC50, nM
records = [
    ("O=C(NOCC1CC1)c1ccc(F)c(F)c1Nc1ccc(I)cc1Cl", 61),
]

====

Procedure Details: Inhibition of MEK in human A375P cells expressing B-Raf V600E mutant assessed as inhibition of ERK phosphorylation incubated for 60 mins by Western blotting analysis
Type: cell-based
Test Context: 1 h
pEC50: −log10 of the molar value.
Metric: pEC50

# Smiles, Result
data = [
    ("O=C(NOCC1CC1)c1ccc(F)c(F)c1Nc1ccc(I)cc1Cl", 6.68),
]

====

# pEC50 per entry
Tested on: HCT-116
Procedure Details: Antiproliferative activity against human HCT-116 cells expressing K-Ras G13D mutant assessed as decrease in cell growth incubated for 72 hrs by CellTiter-Glo based luminescence assay
Assay type: functional
Test Context: HCT-116, 72 h
pEC50: −log10 of the molar value.
Metric: pEC50

# Molecule, Result
data = [
    ("CN(C)CCOc1ccc(-c2nc(-c3ccncc3)c(-c3ccc4c(c3)CC/C4=N\\O)[nH]2)cc1 [SB590885]", 5.34),
    ("O=C(NOCC1CC1)c1ccc(F)c(F)c1Nc1ccc(I)cc1Cl [CI-1040]", 5.66),
]

====

Procedure Details: Inhibition of MEK in human SK-MEL-28 cells expressing B-Raf V600E mutant assessed as inhibition of ERK phosphorylation incubated for 60 mins by Western blotting analysis
Format: cell-based
Test Context: SK-MEL-28, 1 h
Metric: EC50 (nM)

# Smiles, Measurement Unit, Result
measured = [
    ("O=C(NOCC1CC1)c1ccc(F)c(F)c1Nc1ccc(I)cc1Cl", "nM", 86),
]

====

Procedure Details: Inhibition of BRAF V599E mutant (unknown origin) assessed as apparent inhibition constant incubated for 25 mins in presence of gamma-[33P]ATP
Parameters: species or system Homo sapiens
Test Context: read-out: Ki(app)

# Compound, Ki
records = [
    ("CNC(=O)c1cc(Oc2ccc(NC(=O)Nc3ccc(Cl)c(C(F)(F)F)c3)cc2)ccn1 [SORAFENIB]", "38 nM"),
]

====

Procedure Details: Cytotoxicity against human HMEC cells assessed as decrease in cell growth incubated for 72 hrs by CellTiter-Glo based luminescence assay
Format: toxicity
Metric: EC50 at 72 h (µM)

# Compound, Result
measured = [
    ("CN(C)CCOc1ccc(-c2nc(-c3ccncc3)c(-c3ccc4c(c3)CC/C4=N\\O)[nH]2)cc1 [SB590885]", 9.2),
    ("O=C(NOCC1CC1)c1ccc(F)c(F)c1Nc1ccc(I)cc1Cl [CI-1040]", 0.58),
]

====

Procedure Details: Cytotoxicity against human HFF cells assessed as decrease in cell growth incubated for 72 hrs by CellTiter-Glo based luminescence assay
Type: toxicity
Metric: EC50 at 72 h (µM)

# Compound, Metric, Comparator, Result
measured = [
    ("CN(C)CCOc1ccc(-c2nc(-c3ccncc3)c(-c3ccc4c(c3)CC/C4=N\\O)[nH]2)cc1 [SB590885]", "EC50 at 72 h", ">", 12),
    ("O=C(NOCC1CC1)c1ccc(F)c(F)c1Nc1ccc(I)cc1Cl [CI-1040]", "EC50 at 72 h", "=", 4.9),
]
